target: recombinant human S1P1 receptor (Homo sapiens, UniProt P21453); assay: GTPγS assay to determine EC50 values; conditions: agonistic activity; membrane preparations of CHO cells expressing recombinant human S1P1 receptor; 35S-GTPγS binding
Sequence (P21453 whole entry): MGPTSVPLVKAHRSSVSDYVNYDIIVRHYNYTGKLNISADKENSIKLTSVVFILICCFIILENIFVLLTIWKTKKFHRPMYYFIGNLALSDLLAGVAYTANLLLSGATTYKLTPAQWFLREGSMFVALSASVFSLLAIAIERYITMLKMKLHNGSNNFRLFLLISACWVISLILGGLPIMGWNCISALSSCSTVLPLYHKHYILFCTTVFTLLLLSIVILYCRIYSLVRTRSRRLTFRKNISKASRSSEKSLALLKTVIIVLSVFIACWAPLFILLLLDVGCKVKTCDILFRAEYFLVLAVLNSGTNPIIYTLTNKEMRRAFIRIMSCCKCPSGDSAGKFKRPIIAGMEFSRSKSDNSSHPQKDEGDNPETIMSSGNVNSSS
MEASUREMENT LABEL: EC50
Answer with the value and then the unit.

INSERT INTO assay_data (compound, reported_result) VALUES
  ('CCCc1cc(-c2nc(-c3cc(C)c(OCC(O)CNC(=O)CO)c(C)c3)no2)cc(C)n1 (stereo not shown)', '0.4 nM'),
  ('CCc1cc(-c2nnc(-c3cc(C)nc(CC(C)C)c3)o2)cc(C)c1OC[C@@H](O)CNC(=O)CO', '0.8 nM'),
  ('Cc1cc(-c2nc(-c3cc(C)c(OCC(O)CNC(=O)CO)c(C)c3)no2)cc(CC(C)C)n1 (racemic)', '0.2 nM'),
  ('COc1cc(-c2noc(-c3cc(C)nc(CC(C)C)c3)n2)cc(Cl)c1OC[C@H](O)CNC(=O)CO', '0.7 nM'),
  ('Cc1cc(-c2nc(-c3cc(C)c(OCC(O)CNC(=O)CO)c(Cl)c3)no2)cc(CC(C)C)n1 (stereo not shown)', '0.2 nM');

Which measured EC50 belongs to CCOc1cc(-c2nc(-c3cc(C)c(OCC(O)CO)c(C)c3)no2)cc(C)n1 (racemic) , tested on recombinant human S1P1 receptor (Homo sapiens, UniProt P21453)? 2.5 nM

Now try CCc1cc(-c2noc(-c3cc(CC(C)C)nc(OC)c3)n2)cc(C)c1OC[C@@H](O)CNC(=O)CO . 0.9 nM

Now try CCCc1cc(-c2nnc(-c3cc(C)c(OC[C@@H](O)CNC(=O)CO)c(C)c3)o2)cc(C)n1 . 1.8 nM

Now try CCc1cc(-c2noc(-c3cc(C)c(OC[C@@H](O)CNC(=O)CO)c(CC)c3)n2)cc(C)n1 . 4.3 nM

Now try CCCc1cc(-c2noc(-c3cc(C)nc(C(C)C)c3)n2)cc(C)c1OC[C@@H](O)CNC(=O)CO . 0.4 nM

====

Target: recombinant human S1P1 receptor (Homo sapiens)
Experiment: GTPγS assay to determine EC50 values
Settings: agonistic activity; membrane preparations of CHO cells expressing recombinant human S1P1 receptor; 35S-GTPγS binding
Experimental: i) GTPγS assay to determine EC50 values GTPγS binding assays are performed in 96 well microtiter plates (Nunc, 442587) in a final volume of 200 μl, using membrane preparations of CHO cells expressing recombinant human S1P1 receptor. […] Membrane-bound ^35S-GTPγS is measured with a TopCount from Packard Biosciences. […]
MEASUREMENT LABEL: EC50

Field: example entries. Status: answers known.
INSERT INTO results (compound, measurement_label, reported_result) VALUES
  ('CCc1cc(-c2nc(-c3cc(C)c(OC[C@H](O)CNC(=O)CO)c(Cl)c3)no2)cc(C)n1 [Example 60]', 'EC50', '0.5 nM'),
  ('CCCc1cc(-c2nc(-c3cc(C)c(O)c(CC)c3)no2)cc(C)n1 [Example 86]', 'EC50', '5.6 nM'),
  ('Cc1cc(-c2noc(-c3cc(Cl)nc(CC(C)C)c3)n2)cc(C)c1OCC(O)CO (racemic) [Example 4]', 'EC50', '0.7 nM'),
  ('CCc1cc(-c2noc(-c3cc(C)nc(C(CC)CC)c3)n2)cc(C)c1OC[C@@H](O)CO [Example 196]', 'EC50', '0.6 nM'),
  ('CCc1cc(-c2ncc(-c3cc(C)nc(CC(C)C)c3)o2)cc(C)c1OC[C@@H](O)CO [Example 235]', 'EC50', '5.8 nM');

Could you now look at the following compound, please?
Name the reported EC50 value associated with the compound Cc1cc(-c2noc(-c3cc(Cl)nc(OC(C)C)c3)n2)cc(C)c1OCC(O)CNC(=O)CO (racemic) [Example 26] 0.4 nM

Values compiled from patent US8580824B2.
